# target_under_test: human cloned CHRM4 receptor (M4_CHO cells) (Homo sapiens, UniProt P08173)
# Construct: expressed in transfected cells; host or cells: CHO-K1
# Sequence (P08173 1-479): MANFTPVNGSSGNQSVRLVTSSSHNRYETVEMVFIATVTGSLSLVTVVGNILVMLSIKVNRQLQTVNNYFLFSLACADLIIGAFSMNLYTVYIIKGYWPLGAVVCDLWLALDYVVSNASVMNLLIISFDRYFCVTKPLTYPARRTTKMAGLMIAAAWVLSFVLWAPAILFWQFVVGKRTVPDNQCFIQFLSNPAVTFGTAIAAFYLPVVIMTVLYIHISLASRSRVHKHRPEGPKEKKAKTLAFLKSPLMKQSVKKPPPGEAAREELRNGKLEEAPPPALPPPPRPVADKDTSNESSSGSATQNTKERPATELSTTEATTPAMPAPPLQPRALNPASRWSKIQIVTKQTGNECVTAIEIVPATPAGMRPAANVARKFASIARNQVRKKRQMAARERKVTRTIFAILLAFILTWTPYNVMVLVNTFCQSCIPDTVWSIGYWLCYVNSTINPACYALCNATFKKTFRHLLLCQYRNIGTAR
# procedure_text: CHRM4 Ca++ Flux Assay (agonist mode, FDSS 7000EX)
# Format: cell-based
# assay_context: Percent Activity, read-out: M4 FDSS PA
// boundary case: Emax equal to 70% maps to 0.0; strictly smaller maps to 1.0

Recorded results for 8 molecules are shown here.
[
  {
    "molecule": "Cc1coc(N2CC3(CC[C@@H](N4CCC(c5ccc(F)cc5OCC(C)(C)O)CC4)C3)C2)n1 [Example 3N]",
    "target_under_test": "human cloned CHRM4 receptor (M4_CHO cells) (Homo sapiens, UniProt P08173)",
    "category_label": 1.0
  },
  {
    "molecule": "c1ccc(C2CCN([C@H]3CCC4(C3)CN(c3nnco3)C4)CC2)c(C2CCOCC2)c1 (single isomer, unassigned) [Example 10T]",
    "target_under_test": "human cloned CHRM4 receptor (M4_CHO cells) (Homo sapiens, UniProt P08173)",
    "category_label": 1.0
  },
  {
    "molecule": "COc1ccccc1C1CCN([C@@H]2CCC3(C2)CN(c2cnc(C)cn2)C3)CC1 [Example 5DD]",
    "target_under_test": "human cloned CHRM4 receptor (M4_CHO cells) (Homo sapiens, UniProt P08173)",
    "category_label": 1.0
  },
  {
    "molecule": "c1ccc(C2CCN([C@@H]3CCC4(C3)CN(c3nncs3)C4)CC2)c(OC2COC2)c1 [Example 3A]",
    "target_under_test": "human cloned CHRM4 receptor (M4_CHO cells) (Homo sapiens, UniProt P08173)",
    "category_label": 0.0
  },
  {
    "molecule": "COc1ccccc1C1CCN([C@@H]2CCC3(C2)CN(c2cncnc2)C3)CC1 [Example 5A]",
    "target_under_test": "human cloned CHRM4 receptor (M4_CHO cells) (Homo sapiens, UniProt P08173)",
    "category_label": 1.0
  },
  {
    "molecule": "CC(C)(O)COc1ccccc1C1CCN([C@@H]2CCC3(C2)CN(C(=O)C2COC2)C3)CC1 [Example 7L]",
    "target_under_test": "human cloned CHRM4 receptor (M4_CHO cells) (Homo sapiens, UniProt P08173)",
    "category_label": 1.0
  },
  {
    "molecule": "c1ccc(C2CCN([C@@H]3CCC4(C3)CN(c3nnco3)C4)CC2)c(OC2CC3(COC3)C2)c1 [Example 1A]",
    "target_under_test": "human cloned CHRM4 receptor (M4_CHO cells) (Homo sapiens, UniProt P08173)",
    "category_label": 0.0
  },
  {
    "molecule": "COc1ccccc1C1CCN([C@@H]2CCC3(C2)CN(c2cc(Cl)nnc2Cl)C3)CC1 [Example 5R]",
    "target_under_test": "human cloned CHRM4 receptor (M4_CHO cells) (Homo sapiens, UniProt P08173)",
    "category_label": 1.0
  }
]

stdin: Emax under 70%? Item: c1ccc(C2CCN([C@@H]3CCC4(C3)CN(c3nnco3)C4)CC2)c(C2CCOCC2)c1 [Example 2H]
stdout: 0.0

stdin: Cool, now COc1ccccc1C1CCN([C@@H]2CCC3(C2)CN(c2ccc(Cl)nn2)C3)CC1 [Example 5N]
stdout: 1.0

stdin: Cool, now FC1(COc2ccccc2C2CCN([C@@H]3CCC4(C3)CN(c3nncs3)C4)CC2)CCOCC1 [Example 1J]
stdout: 1.0

stdin: Cool, now Fc1ccc(N2CC3(CC[C@@H](N4CCC(c5ccccc5C5CCOCC5)CC4)C3)C2)cn1 [Example 5CC]
stdout: 0.0

stdin: Cool, now CC(C)(O)CCOc1ccccc1C1CCN([C@@H]2CCC3(C2)CN(C(=O)C2COC2)C3)CC1 [Example 7CC]
stdout: 1.0

stdin: Cool, now CC(C)COc1ccccc1C1CCN([C@@H]2CCC3(C2)CN(C(=O)C2COC2)C3)CC1 [Example 7F]
stdout: 1.0

stdin: Cool, now c1ccc(C2CCN([C@@H]3CCC4(C3)CN(c3cncnc3)C4)CC2)c(OC2CC3(COC3)C2)c1 [Example 1O]
stdout: 1.0

stdin: Cool, now O=C(C1COC1)N1CC2(CC[C@@H](N3CCC(c4ccccc4OC4CCCC4)CC3)C2)C1 [Example 7G]
stdout: 1.0

stdin: Cool, now Fc1cncc(N2CC3(CC[C@@H](N4CCC(c5ccccc5C5CCOCC5)CC4)C3)C2)c1 [Example 5AA]
stdout: 0.0

stdin: Cool, now c1ccc(C2CCN([C@@H]3CCC4(C3)CN(c3cncnc3)C4)CC2)c(OCC2COC2)c1 [Example 1N]
stdout: 1.0

stdin: Cool, now COc1ccccc1C1CCN([C@@H]2CCC3(C2)CN(c2nccnc2C)C3)CC1 [Example 5J]
stdout: 1.0

stdin: Cool, now O=C(C1COC1)N1CC2(CC[C@H](N3CCC(c4ccccc4OC(F)(F)F)CC3)C2)C1 (single isomer, unassigned) [Example 8G]
stdout: 1.0

stdin: Cool, now Fc1cccc(C2CCN([C@@H]3CCC4(C3)CN(c3nncs3)C4)CC2)c1OC1COC1 [Example 3E]
stdout: 0.0

stdin: Cool, now c1ccc(C2CCN([C@@H]3CCC4(C3)CN(c3nncs3)C4)CC2)c(OCC2CCOCC2)c1 [Example 1I]
stdout: 1.0

stdin: Cool, now Cc1ccc(N2CC3(CC[C@@H](N4CCC(c5ccccc5O[C@@H]5CCOC5)CC4)C3)C2)cn1 [Example 5L]
stdout: 1.0

====

# target_under_test: human cloned CHRM4 receptor (M4_CHO cells) (Homo sapiens)
# Construct: expressed in transfected cells; host or cells: CHO-K1
# procedure_text: CHRM4 Ca++ Flux Assay (agonist mode, FDSS 7000EX)
# Type: cell-based
# assay_context: geometric mean if tested more than once, read-out: M4 FDSS EC50
assay_endpoint: EC50 (nM)
Just the number in nM, nothing appended.

Answered cases to consult:
[
  {
    "compound": "COc1ccccc1C1CCN([C@@H]2CCC3(C2)CN(c2ccc(Cl)nn2)C3)CC1",
    "reported_value": 26
  },
  {
    "compound": "CCOc1ccccc1C1CCN([C@@H]2CCC3(C2)CN(C(=O)C2(F)CC2)C3)CC1 (single isomer, unassigned)",
    "reported_value": 2650
  },
  {
    "compound": "Fc1ccc(C2CCOCC2)c(C2CCN([C@@H]3CCC4(C3)CN(c3cncnc3)C4)CC2)c1 (single isomer, unassigned) [Example 10D]",
    "reported_value": 25
  }
]

stdin: Would you mind telling me what EC50 value was observed for `CC(C)(O)CCOc1ccccc1C1CCN([C@@H]2CCC3(C2)CN(c2nncs2)C3)CC1` ?
stdout: 8

stdin: Cool, now `O=C(C1COC1)N1CC2(CC[C@@H](N3CCC(c4ccccc4OC4CCC4)CC3)C2)C1`
stdout: 4

stdin: Cool, now Cc1nnc(COc2ccccc2C2CCN([C@@H]3CCC4(C3)CN(C(=O)C3(F)CC3)C4)CC2)s1 (single isomer, unassigned)
stdout: 62

stdin: Cool, now Fc1ccc(OC2CCOCC2)c(C2CCN([C@@H]3CCC4(C3)CN(c3cncnc3)C4)CC2)c1 (single isomer, unassigned) [Example 10H]
stdout: 19

stdin: Cool, now `CC1(COc2ccccc2C2CCN([C@@H]3CCC4(C3)CN(c3nnco3)C4)CC2)CCOCC1`
stdout: 2

stdin: Cool, now `COc1ccccc1C1CCN([C@@H]2CCC3(C2)CN(c2cccnn2)C3)CC1`
stdout: 55

stdin: Cool, now `FC1(COc2ccccc2C2CCN([C@@H]3CCC4(C3)CN(c3nncs3)C4)CC2)COC1`
stdout: 1

stdin: Cool, now `COc1ccccc1C1CCN([C@@H]2CCC3(C2)CN(c2ccns2)C3)CC1`
stdout: 1

stdin: Cool, now O=C(N1CC2(CC[C@@H](N3CCC(c4cc(F)ccc4OC4CC5(COC5)C4)CC3)C2)C1)C1(F)CC1 (single isomer, unassigned) [Example 11B]
stdout: 2

stdin: Cool, now `O=C(C1COC1)N1CC2(CC[C@@H](N3CCC(c4ccccc4OC4CCCC4)CC3)C2)C1`
stdout: 9

stdin: Cool, now `c1ccc(C2CCN([C@@H]3CCC4(C3)CN(c3cncnc3)C4)CC2)c(OC2CC3(COC3)C2)c1`
stdout: 3

stdin: Cool, now FC(F)(F)Oc1ccccc1C1CCN([C@@H]2CCC3(C2)CN(c2nncs2)C3)CC1 (single isomer, unassigned) [Example 10M]
stdout: 11
